Hey, just so you know, these numbers are from ChEMBL document CHEMBL3351449.

# target: Prostaglandin G/H synthase 2 (Homo sapiens) (UniProt P35354)
# Sequence (P35354 whole entry): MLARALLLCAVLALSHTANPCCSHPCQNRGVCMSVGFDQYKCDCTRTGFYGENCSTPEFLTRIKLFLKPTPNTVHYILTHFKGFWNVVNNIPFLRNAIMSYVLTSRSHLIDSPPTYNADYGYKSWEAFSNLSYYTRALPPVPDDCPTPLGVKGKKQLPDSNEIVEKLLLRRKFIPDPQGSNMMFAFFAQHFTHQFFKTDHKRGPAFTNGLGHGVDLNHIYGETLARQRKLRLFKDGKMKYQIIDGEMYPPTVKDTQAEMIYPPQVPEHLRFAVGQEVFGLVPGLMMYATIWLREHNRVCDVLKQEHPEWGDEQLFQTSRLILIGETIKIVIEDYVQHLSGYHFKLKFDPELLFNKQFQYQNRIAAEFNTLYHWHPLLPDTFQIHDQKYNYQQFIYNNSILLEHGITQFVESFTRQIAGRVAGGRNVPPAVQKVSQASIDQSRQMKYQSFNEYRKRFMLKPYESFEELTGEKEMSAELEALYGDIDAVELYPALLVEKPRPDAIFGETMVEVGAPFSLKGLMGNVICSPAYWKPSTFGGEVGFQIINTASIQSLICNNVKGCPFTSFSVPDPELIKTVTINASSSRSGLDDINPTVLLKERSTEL
# protocol: Inhibition of human recombinant COX2 assessed as inhibition of ADHP to fluorescent resorufin conversion measured as residual activity at 10 uM by fluorescence assay
Activity reference

Examples from the recorded data:
compound | Activity
COc1ccc2cc([C@H](C)C(=O)NCCc3c[nH]c4ccc(O)cc34)ccc2c1 | 48%
CCCCC/C=C\C/C=C\C/C=C\C/C=C\CCCC(=O)NCCc1c[nH]c2ccc(O)cc12 | 66%
CC(C)Cc1ccc(C(C)C(=O)NCCc2c[nH]c3ccc(O)cc23)cc1 (configuration not stated) | 42%

Q. Could you share which Activity value was measured for O=C(NCCc1c[nH]c2ccc(O)cc12)c1ccccc1O ?
A. 51%

Q. Given the entry CC(=O)Oc1ccccc1C(=O)NCCc1c[nH]c2ccc(O)cc12 , report its measured Activity.
A. 60%

Q. Reported Activity for CC(C(=O)NCCc1c[nH]c2ccc(O)cc12)c1ccc(-c2ccccc2)c(F)c1 (configuration not stated) : what is it?
A. 38%

Q. Entry under review: O=C(NCCc1c[nH]c2ccc(O)cc12)c1ccccc1Nc1cccc(C(F)(F)F)c1 . Reported Activity?
A. 38%

Q. Which Activity value belongs to O=C(c1ccccc1)c1ccc2n1CCC2C(=O)NCCc1c[nH]c2ccc(O)cc12 (configuration not stated) ?
A. 43%

Q. Look up Activity for this compound: CC(C(=O)NCCc1c[nH]c2ccc(O)cc12)c1cccc(Oc2ccccc2)c1 (configuration not stated)
A. 49%

Q. I have this compound here, O=C(Cc1ccccc1Nc1c(Cl)cccc1Cl)NCCc1c[nH]c2ccc(O)cc12 , and I need its recorded Activity.
A. 43%

Q. // query Activity value for entry CC(C(=O)NCCc1c[nH]c2ccc(O)cc12)c1cccc(C(=O)c2ccccc2)c1 (configuration not stated)
A. 51%

Q. So what does the record say about Activity for COc1ccc2c(c1)c(CC(=O)NCCc1c[nH]c3ccc(O)cc13)c(C)n2C(=O)c1ccc(Cl)cc1 ?
A. 7%

* * *

# target: Transient receptor potential cation channel subfamily V member 1 (Homo sapiens, UniProt Q8NER1)
# Sequence (Q8NER1 whole entry): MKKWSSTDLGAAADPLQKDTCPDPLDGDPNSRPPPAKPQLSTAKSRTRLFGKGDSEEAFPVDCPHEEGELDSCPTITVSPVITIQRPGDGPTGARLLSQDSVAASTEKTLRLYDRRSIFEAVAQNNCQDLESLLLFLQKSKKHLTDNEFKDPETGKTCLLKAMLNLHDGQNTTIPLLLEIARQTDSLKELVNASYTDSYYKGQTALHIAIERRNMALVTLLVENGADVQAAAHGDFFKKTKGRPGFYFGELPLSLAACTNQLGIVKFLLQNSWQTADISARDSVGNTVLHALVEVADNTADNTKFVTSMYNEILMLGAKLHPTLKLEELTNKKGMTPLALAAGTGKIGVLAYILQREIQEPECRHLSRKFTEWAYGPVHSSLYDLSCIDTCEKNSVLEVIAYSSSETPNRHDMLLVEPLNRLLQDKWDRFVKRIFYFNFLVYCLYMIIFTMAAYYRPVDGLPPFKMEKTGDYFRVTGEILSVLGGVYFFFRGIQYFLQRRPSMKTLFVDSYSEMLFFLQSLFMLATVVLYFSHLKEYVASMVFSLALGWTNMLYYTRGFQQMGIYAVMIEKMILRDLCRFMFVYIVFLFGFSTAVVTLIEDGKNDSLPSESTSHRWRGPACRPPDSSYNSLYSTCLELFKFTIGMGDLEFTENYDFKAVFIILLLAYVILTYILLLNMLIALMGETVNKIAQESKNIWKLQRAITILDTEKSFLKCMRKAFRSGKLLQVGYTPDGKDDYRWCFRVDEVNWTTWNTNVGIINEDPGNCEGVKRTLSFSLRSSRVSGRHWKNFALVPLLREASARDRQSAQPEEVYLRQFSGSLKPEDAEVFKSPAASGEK
# protocol: Inhibition of human TRPV1 overexpressed in BEAS-2B cells assessed as calcium flux after 30 mins by Fluo-4 AM fluorescence assay
readout_label: IC50 (µM)
// units = µM; emit number, no label

// solved cases for IC50 follow
compound | value_units | IC50
COc1ccc2cc([C@H](C)C(=O)NCCc3c[nH]c4ccc(O)cc34)ccc2c1 | µM | 13
O=C(NCCc1c[nH]c2ccc(O)cc12)c1ccccc1Nc1cccc(C(F)(F)F)c1 | µM | 10
O=C(NCCc1c[nH]c2ccc(O)cc12)c1ccccc1O | µM | 70
CCCCC/C=C\C/C=C\C/C=C\C/C=C\CCCC(=O)NCCc1c[nH]c2ccc(O)cc12 | µM | 10
COc1ccc2c(c1)c(CC(=O)NCCc1c[nH]c3ccc(O)cc13)c(C)n2C(=O)c1ccc(Cl)cc1 | µM | 48
CC(C(=O)NCCc1c[nH]c2ccc(O)cc12)c1cccc(C(=O)c2ccccc2)c1 (configuration not stated) | µM | 45
O=C(c1ccccc1)c1ccc2n1CCC2C(=O)NCCc1c[nH]c2ccc(O)cc12 (configuration not stated) | µM | 70
CC(C)Cc1ccc(C(C)C(=O)NCCc2c[nH]c3ccc(O)cc23)cc1 (configuration not stated) | µM | 6
O=C(Cc1ccccc1Nc1c(Cl)cccc1Cl)NCCc1c[nH]c2ccc(O)cc12 | µM | 19
CC(=O)Oc1ccccc1C(=O)NCCc1c[nH]c2ccc(O)cc12 | µM | 203

Q. Quick check: IC50 of CC(C(=O)NCCc1c[nH]c2ccc(O)cc12)c1cccc(Oc2ccccc2)c1 (configuration not stated) ?
A. 8

Q. What does the record list as IC50 for CC(C(=O)NCCc1c[nH]c2ccc(O)cc12)c1ccc(-c2ccccc2)c(F)c1 (configuration not stated) ?
A. 9
